Test system: Wnt activity (Sp5-Luc reporter, SW480 colon carcinoma cells)
assay-procedure: Wnt activity screening assay: Sp5-Luc reporter gene in SW480 colon carcinoma cells
Assay type: cell-based
recorded-conditions: Homo sapiens, overnight incubation, 10-point curve from 10 μM
Procedure: The screening assay for Wnt activity is described as follows. […] SW480 colon carcinoma cells were transduced with a lentiviral vector expressing luciferase with a human Sp5 promoter consisting of a sequence of eight TCF/LEF binding sites. […] Following incubation, 20 μl of BrightGlo luminescence reagent (Promega) was added to each well of the 384-well assay plates. The plates were placed on an orbital shaker for 2 min and then luminescence was quantified using the Envision (Perkin Elmer) plate reader. […]
Give measured pEC50 for each item. Keep answers brief.
Answers are plain numbers, as −log10 of the molar value.

Record excerpt, results attached:
# compound, pEC50
data = [
    ("CN(C)CCNc1cc(F)cc(-c2cccc3[nH]c(-c4n[nH]c5ccc(-c6cncc(CN7CCCCC7)c6)nc45)cc23)c1 [Compound 463]", 5.86),
    ("c1cc(-c2ccncc2)c2cc(-c3n[nH]c4ccc(-c5cncc(OCCN6CCCC6)c5)nc34)[nH]c2c1 [Compound 606]", 5.30),
    ("O=C(CC1CCNCC1)Nc1cncc(-c2ccc3[nH]nc(-c4cc5c(-c6ccccn6)cccc5[nH]4)c3n2)c1 [Compound 621]", 5.80),
    ("CCCCC(=O)Nc1cncc(-c2ccc3[nH]nc(-c4cc5c(N6CCCCC6)cccc5[nH]4)c3n2)c1 [Compound 187]", 6.24),
]

Provide the reported pEC50 of each entry below, same order.
1. CC(C)Nc1cncc(-c2ccc3[nH]nc(-c4cc5ncccc5[nH]4)c3n2)c1 [Compound 516]
2. CN1CCN(c2cccc3[nH]c(-c4n[nH]c5ccc(-c6cncc(NC(=O)c7ccccc7)c6)nc45)cc23)CC1 [Compound 235]
3. CS(=O)(=O)NCc1cc(F)cc(-c2cccc3[nH]c(-c4n[nH]c5ccc(-c6cncc(OCc7ccccc7)c6)nc45)cc23)c1 [Compound 802]
4. Fc1cccc(-c2cccc3[nH]c(-c4n[nH]c5ccc(-c6cccnc6)nc45)cc23)c1 [Compound 4]

### Response
[7.21, 5.39, 6.36, 6.68]

Provide the reported pEC50 of each entry below, same order.
1. c1cnc2cc(-c3n[nH]c4ccc(-c5cn[nH]c5)nc34)[nH]c2c1 [Compound 1021]
2. CCCCC(=O)Nc1cncc(-c2ccc3[nH]nc(-c4cc5ncccc5[nH]4)c3n2)c1 [Compound 523]
3. Cc1ccncc1-c1ccc2[nH]nc(-c3cc4c(N5CCN(C)CC5)cccc4[nH]3)c2n1 [Compound 229]
4. Fc1ccc(-c2cccc3[nH]c(-c4n[nH]c5ccc(-c6cncnc6)nc45)cc23)cc1 [Compound 55]
5. Fc1cccc(-c2cccc3[nH]c(-c4n[nH]c5ccc(-c6cncc(OCc7ccccc7)c6)nc45)cc23)c1 [Compound 546]
6. Oc1cncc(-c2ccc3[nH]nc(-c4cc5ncccc5[nH]4)c3n2)c1 [Compound 1031]
7. CC(C)CC(=O)Nc1cncc(-c2ccc3[nH]nc(-c4cc5c(N6CCN(C)CC6)cccc5[nH]4)c3n2)c1 [Compound 226]

### Response
1: 6.12; 2: 6.26; 3: 5.70; 4: 5.88; 5: 5.58; 6: 6.05; 7: 5.67

Provide the reported pEC50 of each entry below, same order.
1. CC(C)CC(=O)Nc1cncc(-c2ccc3[nH]nc(-c4cc5c(-c6ccccc6F)cccc5[nH]4)c3n2)c1 [Compound 58]
2. CN(C)Cc1cncc(-c2ccc3[nH]nc(-c4cc5ccccc5[nH]4)c3n2)c1 [Compound 265]

### Response
6.60
6.04

Provide the reported pEC50 of each entry below, same order.
1. Fc1cccc(-c2cccc3[nH]c(-c4n[nH]c5ccc(-c6cncc(CN7CCC(F)(F)C7)c6)nc45)cc23)c1 [Compound 26]
2. Cc1ccncc1-c1ccc2[nH]nc(-c3cc4c(-c5cc(F)cc(CNS(C)(=O)=O)c5)cccc4[nH]3)c2n1 [Compound 481]

### Response
[6.01, 6.79]

Provide the reported pEC50 of each entry below, same order.
1. CN(C)Cc1cncc(-c2ccc3[nH]nc(-c4cc5c(-c6cccnc6)cccc5[nH]4)c3n2)c1 [Compound 97]
2. CS(=O)(=O)NCc1cc(F)cc(-c2cccc3[nH]c(-c4n[nH]c5ccc(-c6cncc(NC(=O)C7CCCC7)c6)nc45)cc23)c1 [Compound 498]
3. FC1(F)CCN(Cc2cncc(-c3ccc4[nH]nc(-c5cc6c(-c7ccccn7)cccc6[nH]5)c4n3)c2)C1 [Compound 166]
4. c1cc(-c2ccoc2)c2cc(-c3n[nH]c4ccc(-c5cncc(CNCC6CCCC6)c5)nc34)[nH]c2c1 [Compound 333]
5. CS(=O)(=O)NCc1cc(F)cc(-c2cccc3[nH]c(-c4n[nH]c5ccc(C6CCNCC6)nc45)cc23)c1 [Compound 789]

### Response
6.38
6.51
6.36
5.44
5.53
